Test system: HCT-116 colon
Assay: NCI-60 one-dose screen, 48 h
Conditions: 10 µM
Compounds without any hit were thinned out: in the full panel of roughly 83,000, 20% have a hit. Calls of active or inactive are those of the source. The calls were made as follows: active = growth percent below 10; inactive = the rest.
Labels: T (active), F (inactive)

1. COc1cc(C(=O)NC(=S)Nc2ccc3ccccc3c2)cc(OC)c1OC; F
2. OC(c1ccccn1)C(O)c1ccccn1 (stereo not given); F
3. COc1ccccc1NC(=O)c1cc2cc(Br)ccc2cc1O; T
4. O=[N+]([O-])c1cccc(N=Nc2ccc(O)cc2O)c1; F
5. N#Cc1c(N)sc(=S)c2c1CCCC2; F

----------
Test system: HCT-15 colon
Assay: NCI-60 one-dose screen, 48 h (100 = growth as untreated, 0 = no growth, -100 = all killed)
Conditions: 10 µM
Compounds without any hit were thinned out: in the full panel of roughly 83,000, 20% have a hit.
Endpoint name: growth (%)

1. COc1nc(N)nc2c1ncn2C1OC(CO)CC1O (configuration not stated); 101
2. CCOC(=O)Nc1nn[nH]n1; 91.7
3. CCC/C=C(/C(C)=O)C(=O)OCC; 109
4. O=C(Nc1ccccc1C(=O)NCC1CC1)c1cccs1; 93.8
5. CC1=CC(C)(C)NC(=S)N1c1ccc(S(=O)(=O)O)c2cccc(S(=O)(=O)O)c12; 105
6. Cc1cccc(C(=O)N(C(C)C)C(C)C)c1; 96.7
7. S=C1NCc2cncnc2N1; 95.4
8. Nc1ccc(N=Nc2ccc(S(=O)(=O)O)cc2)c2ccccc12; 99.9
9. O=[N+]([O-])c1ccc(Cl)c(S(=O)(=O)O)c1; 96.6
10. COc1cc(/C=C/C(=O)c2ccccc2)cc(OC)c1OC; 31.4
11. Cc1cc(=O)cc(C)n1-c1ccccc1; 104
12. CC(=O)Cc1ccc(-c2ccccc2)cc1; 103
